pKi: −log10 of the molar value.
Please find below pKi measurements for Adenosine receptor A1 (Homo sapiens, UniProt P30542), combined from several publications.
Property: pKi

1: COc1ccc(NC(=O)Nc2nc3cn(C)cc3c3nc(-c4ccco4)nn23)cc1
2: CCCN1C(=O)N2C[C@@H](C(C)C)N=C2c2[nH]c(C34CCC(O)(CC3)CC4)nc21
3: OC[C@H]1O[C@@H](n2cnc3c(NCc4cccc(I)c4)nc(Cl)nc32)[C@H](O)[C@@H]1F
4: COc1ccccc1Cn1cc2nc(-c3ccco3)nc(N)c2n1
5: Nc1nc(-c2ccc(NC(=O)CCC(=O)O)cc2)cn2c(=O)n(-c3ccccc3)nc12
Input: // ascending sort on pKi for the entries above Response format: the labels, sorted as the prompt asks.
Output: 3, 5, 1, 4, 2
(3: 5.33, 5: 5.64, 1: 6.10, 4: 7.01, 2: 7.46)

----------
Please find below Ki measurements for the protein given by its sequence, combined from several publications.
Sequence of the target: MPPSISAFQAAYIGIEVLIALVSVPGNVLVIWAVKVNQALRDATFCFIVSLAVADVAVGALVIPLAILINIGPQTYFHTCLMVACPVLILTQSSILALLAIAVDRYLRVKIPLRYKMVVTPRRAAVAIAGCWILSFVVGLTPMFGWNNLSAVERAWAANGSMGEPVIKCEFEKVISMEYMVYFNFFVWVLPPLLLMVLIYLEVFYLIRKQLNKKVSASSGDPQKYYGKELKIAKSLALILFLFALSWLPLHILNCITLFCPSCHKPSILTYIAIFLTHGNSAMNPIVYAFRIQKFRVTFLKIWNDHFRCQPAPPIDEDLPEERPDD
Property: Ki (nM)

P: CC(C)n1cc2c(Cl)nc(NC(=O)c3ccc(F)cc3)nc2n1
Q: C=CCN1C(=O)N2CC(CC)N=C2c2[nH]c(-c3cc(C)nn3C)nc21 (racemic)
Input: Lower value for measured Ki? Options: P , Q Indicate your choice by writing its label.
Output: Q

A: O=C(Cc1ccccc1)Nc1nc2nn(CCCc3ccccc3)cc2c2nc(-c3ccco3)nn12
B: CC(C)c1nc2[nH]c(-c3ccccc3)nc(-c3ccccc3)c-2n1
Input: Sort A and B by Ki descending and give the first. Indicate your choice by writing its label.
Output: A
(A: 75 nM, B: 0.82 nM)

P: O=C(O)c1cnc(NC(c2ccccc2)c2ccccc2)n2nc(-c3ccco3)nc12
Q: CCn1cnc2c(CNC(=O)c3nc(N)nc4c(F)cccc34)cccc21
R: O=C(N/N=N/c1nc(NC2CCCC2)c2ncn([C@@H]3O[C@H](CO)[C@@H](O)[C@H]3O)c2n1)Nc1ccccc1
Input: Thanks in advance: please rank these 3 entries by Ki, highest to lowest. Response format: the labels, sorted as the prompt asks.
Output: P, Q, R
(P: 2450 nM, Q: 24 nM, R: 2.8 nM)

----------
Sequence of the target: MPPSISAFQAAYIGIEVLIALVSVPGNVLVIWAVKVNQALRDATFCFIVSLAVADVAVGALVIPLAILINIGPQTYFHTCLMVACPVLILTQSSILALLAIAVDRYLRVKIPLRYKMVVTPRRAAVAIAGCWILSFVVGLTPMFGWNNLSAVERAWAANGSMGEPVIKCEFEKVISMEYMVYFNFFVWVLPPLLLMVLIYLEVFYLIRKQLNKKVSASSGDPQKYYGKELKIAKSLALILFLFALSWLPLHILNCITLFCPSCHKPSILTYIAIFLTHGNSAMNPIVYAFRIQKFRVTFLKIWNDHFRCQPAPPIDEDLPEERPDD
pKi: −log10 of the molar value.
Please find below pKi measurements for the protein given by its sequence, combined from several publications.
Property: pKi

Chemical smiles: CCCn1c(/N=C/c2ccc(Br)cc2)c(C#N)sc1=S
Property: pKi
Measured: 6.22

1: CCC(=O)Nc1nc(-c2ccc3c(c2)OCO3)cc(-c2ccc3c(c2)OCO3)n1
2: NC(=O)c1nc(N)nc2nn(CCc3ccccc3)cc12
3: Nc1nc(OCCc2c[nH]c3ccc(F)cc23)nc2c1ncn2[C@@H]1O[C@H](CO)[C@@H](O)[C@H]1O
4: Nc1nc(-n2cncn2)c2nnn(Cc3ccccc3F)c2n1
Input: // smallest pKi at index 0, largest at the end Response format: the labels, sorted as the prompt asks.
Output: 2, 4, 1, 3
(2: 4.40, 4: 5.53, 1: 6.27, 3: 6.82)

----------
Target sequence: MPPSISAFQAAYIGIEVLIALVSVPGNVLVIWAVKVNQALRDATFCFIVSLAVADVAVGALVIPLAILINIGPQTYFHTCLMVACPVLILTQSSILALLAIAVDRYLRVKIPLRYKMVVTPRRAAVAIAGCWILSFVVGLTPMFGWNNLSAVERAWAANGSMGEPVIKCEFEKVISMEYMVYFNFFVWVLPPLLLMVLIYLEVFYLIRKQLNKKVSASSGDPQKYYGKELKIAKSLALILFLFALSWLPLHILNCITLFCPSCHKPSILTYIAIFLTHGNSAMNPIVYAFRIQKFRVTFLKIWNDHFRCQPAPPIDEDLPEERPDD
pKi: −log10 of the molar value.
Please find below pKi measurements for the protein given by its sequence, combined from several publications.
Property: pKi

Compound: CCOC(=O)CN1CCC(NC(=O)Nc2nc3nn(C)cc3c3nc(-c4ccco4)nn23)CC1
Property: pKi
Measured: 6.46
--
Compound: N#Cc1c(NC2CCCC2)nc(SCCO)c(C#N)c1-c1ccco1
Property: pKi
Measured: 6.13
--
Compound: Nc1nc(-c2ccccc2)cn2cc(-c3ccccc3)nc12
Property: pKi
Measured: 6.74
--
Compound: CCCC1C(=O)c2nc(CCCCN3N=C(c4ccccc4)CCC3=O)[nH]c2N(C)C1=O (stereo not given)
Property: pKi
Measured: 6.42

a: CN1CCN(CC(=O)Nc2cc(-n3cccn3)nc(-c3nccs3)n2)CC1
b: CCNC(=O)[C@H]1OC(n2cnc3c(NC(=O)Nc4ccc(S(=O)(=O)NC(C)(C)C)cc4)ncnc32)C(O)C1O (single isomer, unassigned)
c: Nc1nc(C(=O)NCc2ccccc2F)cc(-c2ccco2)n1
d: CC(O)Cn1c(Br)nc2c(N)ncnc21 (stereo not given)
Input: // smallest pKi at index 0, largest at the end Response format: the labels, sorted as the prompt asks.
Output: d, a, b, c

----------
Please find below Ki measurements for Adenosine receptor A1 (Homo sapiens, UniProt P30542), combined from several publications.
Property: Ki (nM)

A selection of reference data follows.
Molecule: COc1ccc(-c2cc(-c3cccc(Br)c3)c(C#N)c(N)n2)cc1
Ki / nM: 209

Molecule: COc1ccc(CCCn2ncc3c2nc(N)n2nc(-c4ccco4)nc32)cc1OC
Ki / nM: 1650

Molecule: COc1ccc(CNc2ncc(C(=O)O)c3nc(-c4ccco4)nn23)cc1OC
Ki / nM: 958

Molecule: Cc1sc2nc(N)nc(-n3cncn3)c2c1C
Ki / nM: 40800

Molecule: CCOC(=O)c1cnc(NC2CCCCC2)n2nc(-c3ccco3)nc12
Ki / nM: 141

P: Nc1nc(Br)cn2cc(-c3ccco3)nc12
Q: Cc1nn(Cc2ccccc2)c(=O)c2ncn3nc(-c4ccsc4)cc3c12
Input: Lower value for measured Ki? Options: P , Q Indicate your choice by writing its label.
Output: Q
(Q: 85.3 nM, P: 210 nM)

1: Nc1nc(-c2ccccc2)nc2sc(-c3ccco3)nc12
2: CCNC(=O)[C@H]1O[C@@H](n2cnc3c(N)nc(NC(=O)CCC4CCCC4)nc32)[C@H](O)[C@@H]1O
3: CCCn1c(=O)c2[nH]c(-c3cnn(CC4CC(=O)N(c5ccc(F)cc5)C4)c3)nc2n(CC)c1=O (stereo unspecified)
4: CCN(C(C)=O)c1ccc(OC)c2nc(NC(=O)c3ccc(NS(C)(=O)=O)cc3)sc12
5: O=C(Nc1nc(-c2cccs2)nc2cn(-c3ccccc3)nc12)c1ccco1
Input: // smallest Ki at index 0, largest at the end Response format: the labels, sorted as the prompt asks.
Output: 1, 4, 3, 5, 2
(1: 33 nM, 4: 110 nM, 3: 346 nM, 5: 552 nM, 2: 5450 nM)

A: CCNC(=O)[C@H]1O[C@@H](n2cnc3c(Nc4ccc(OCC(=O)Nc5ccccc5)cc4)nc(Cl)nc32)[C@H](O)[C@@H]1O
B: Cc1cc(C)n(-c2cc(NC(=O)CN3CCC(CN(C)C)CC3)nc(-c3ccc(C)o3)n2)n1
Input: Lower value for measured Ki? Options: A , B Indicate your choice by writing its label.
Output: A

----------
pKi: −log10 of the molar value.
Please find below pKi measurements for Adenosine receptor A1 (Homo sapiens), combined from several publications.
Property: pKi

A selection of reference data follows.
Chemical smiles: Nc1nc(C(=O)NCc2nccc3ccccc23)c2cccc(F)c2n1
Measured: 7.08

Chemical smiles: O=C(Cc1ccc(F)cc1)Nc1nc2nn(CCCc3ccccc3)cc2c2nc(-c3ccco3)nn12
Measured: 6.14

I: CCn1cc2c(nc(NC(=O)Cc3ccsc3)n3nc(-c4ccco4)nc23)n1
II: CN(C)c1nc(-c2ccoc2)c2sccc2n1
III: CCCn1cc2c(nc(NC(=O)Nc3cccc(Cl)c3)n3nc(-c4ccco4)nc23)n1
IV: OC[C@@]12C[C@@H]1[C@@H](n1cnc3c(NCc4cccc(I)c4)nc(Cl)nc31)[C@H](O)[C@@H]2O
V: Cn1cc2c(nc(NC(=O)COc3ccc(Cl)cc3)n3nc(-c4ccco4)nc23)n1
Input: Thanks in advance: please rank these 5 entries by pKi, highest to lowest. Response format: the labels, sorted as the prompt asks.
Output: III, IV, I, V, II

I: Nc1nc(OCCc2c[nH]c3c(Br)cccc23)nc2c1ncn2[C@@H]1O[C@H](CO)[C@@H](O)[C@H]1O
II: CC(=O)Nc1cc(-c2ccccc2)cc(-c2ccccc2)n1
III: O=C(Nc1ccc(-c2ccncc2)c(-c2ccccc2F)n1)C1CC1
IV: CCCCn1c(=O)[nH]c2nc(-c3cnn(Cc4ccccc4)c3)[nH]c2c1=O
V: OC[C@H]1O[C@@H](n2cnc3c(NCc4cccc(I)c4)ncnc32)[C@H](O)[C@@H]1O
Input: // smallest pKi at index 0, largest at the end Response format: the labels, sorted as the prompt asks.
Output: IV, I, III, II, V
(IV: 5.29, I: 6.68, III: 6.91, II: 7.68, V: 8.13)

1: CCCn1c(=O)c2nc(-c3ccc(OCc4noc(-c5ccc(C)cc5)n4)cc3)[nH]c2n(CCC)c1=O
2: Nc1nc(N2CCC(CNC(=O)CN3C(=O)c4ccccc4S3(=O)=O)CC2)nc2sc(-c3ccco3)nc12
3: O=C(Nc1nc(C2CC2)cs1)c1cc2ccccc2s1
Input: Thanks in advance: please rank these 3 entries by pKi, highest to lowest. Response format: the labels, sorted as the prompt asks.
Output: 1, 2, 3
